Test: Pharmacokinetic determination in mice (IV and PO, plasma, LCMS/MS)
Assay type: in vivo, Balb/c mice
Conditions: mouse, in vivo; PO, 30 mg/kg, male Balb/c mice, overnight fasting, plasma; read-out: Cmax
Param threshold (200 ng/mL) applies to Cmax; output Y when value >= threshold, N when value < threshold.

Check if Cmax >= 200 ng/mL (inclusive). Item: `C#Cc1c(F)ccc2cc(O)cc(-c3nc4c5c(nc(OCC6(CN7CCC(=CF)C7)CC6)nc5c3F)N3C[C@H]5CC[C@H](N5)[C@H]3[C@H](C)O4)c12`
N

Check if Cmax >= 200 ng/mL (inclusive). Item: `C#Cc1c(F)ccc2cc(O)cc(-c3nc4c5c(nc(OCC6(CN7CCC(=C(F)F)CC7)CC6)nc5c3F)N3C[C@H]5CC[C@H](N5)[C@H]3[C@H](CC)O4)c12`
Y

Check if Cmax >= 200 ng/mL (inclusive). Item: `C#Cc1c(F)ccc2cc(O)cc(-c3nc4c5c(nc(OCC6(CN7CCC(=C(F)F)CC7)CC6)nc5c3F)N3C[C@H]5CC[C@H](N5)[C@H]3[C@H](C)O4)c12`
Y

Check if Cmax >= 200 ng/mL (inclusive). Item: `C#Cc1c(F)ccc2cc(O)cc(-c3nc4c5c(nc(OCC6(CN7CCC(=C(F)F)CC7)CC6)nc5c3F)N3C[C@H]5CC[C@H](N5)[C@H]3CO4)c12`
Y

Check if Cmax >= 200 ng/mL (inclusive). Item: `[2H]C([2H])([2H])[C@@H]1Oc2nc(-c3cc(N)cc(Cl)c3C(F)(F)F)c(F)c3nc(OCC4(CN5CCC(=NOC)CC5)CC4)nc(c23)N2C[C@H]3CC[C@H](N3)[C@@H]12`
N

* * *

Assay: Pharmacokinetic determination in mice (IV and PO, plasma, LCMS/MS)
Assay type: in vivo, Balb/c mice
Details: male, Balb/c, mouse, in vivo, po, 30 mg/kg
value.type: Tmax (h)
Numbers only; they are read as h.

Please report Tmax for the following compound: C#Cc1c(F)ccc2cc(O)cc(-c3ncc4c(N5CC6CCC(C5)N6)nc(OC[C@@]56CCCN5C[C@H](F)C6)nc4c3F)c12 [MRTX-1133, reference compound]
2

* * *

Assay: Plasma stability test, human plasma;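 further: test compound incubated in human plasma, quantified by LC-MS/MS (positive-ion ESI, MRM) against an internal standard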
Type: in vitro ADME
Settings: Human plasma, 37°C, 15 min
value.type: Remaining rate (%) 15 min
Numbers only; they are read as %.

Please report Remaining rate (%) 15 min for the following compound: `C#Cc1c(F)ccc2cc(O)cc(-c3nc4c5c(nc(OCC6(CN7CCC(=CF)CC7)CC6)nc5c3F)N3C[C@H]5CC[C@H](N5)[C@H]3[C@H](C)O4)c12`
109.00

Please report Remaining rate (%) 15 min for the following compound: `C#Cc1c(F)ccc2cc(O)cc(-c3nc4c5c(nc(OCC6(CN7CCC(=C(F)F)CC7)CC6)nc5c3F)N3C[C@H]5CC[C@H](N5)[C@H]3[C@H](C)O4)c12`
95.61

Please report Remaining rate (%) 15 min for the following compound: `[2H]C([2H])(Oc1nc2c3c(nc(-c4cc(O)cc5ccc(F)c(C#C)c45)c(F)c3n1)O[C@@H](C)[C@@H]1[C@@H]3CC[C@H](CN21)N3)C1(C([2H])([2H])N2CCC(=CF)CC2)CC1`
102.43

Please report Remaining rate (%) 15 min for the following compound: `C#Cc1c(F)ccc2cc(O)cc(-c3nc4c5c(nc(OCC6(CN7CCC(=C(F)F)CC7)CC6)nc5c3F)N3C[C@H]5CC[C@H](N5)[C@H]3CO4)c12`
100.68

Please report Remaining rate (%) 15 min for the following compound: `[2H]C([2H])([2H])[C@@H]1Oc2nc(-c3cc(O)cc4ccc(F)c(C#C)c34)c(F)c3nc(OCC4(CN5CCC(=CF)CC5)CC4)nc(c23)N2C[C@H]3CC[C@H](N3)[C@@H]12`
97.48

* * *

Test: Pharmacokinetic determination in mice (IV and PO, plasma, LCMS/MS)
Assay type: in vivo, Balb/c mice
Settings: mouse, in vivo; Balb/c mice, intravenously (IV), 1 mg/kg, plasma; read-out: AUCo-∞
Param threshold (500 ng·h/mL) applies to AUC(0-inf); output fulfilled when value >= threshold, not fulfilled when value < threshold.

Check if AUC(0-inf) >= 500 ng·h/mL (inclusive). Item: C#Cc1c(F)ccc2cc(O)cc(-c3nc4c5c(nc(OCC6(CN7CCC(=NOC)CC7)CC6)nc5c3F)N3C[C@H]5CC[C@H](N5)[C@H]3[C@H](C)O4)c12 [Example 35-1]
not fulfilled

Check if AUC(0-inf) >= 500 ng·h/mL (inclusive). Item: [2H]C([2H])([2H])[C@@H]1Oc2nc(-c3cc(N)cc(Cl)c3C(F)(F)F)c(F)c3nc(OCC4(CN5CCC(=NOC)CC5)CC4)nc(c23)N2C[C@H]3CC[C@H](N3)[C@@H]12 [Example 339]
not fulfilled

Check if AUC(0-inf) >= 500 ng·h/mL (inclusive). Item: C#Cc1c(F)ccc2cc(O)cc(-c3nc4c5c(nc(OCC6(CN7CCC(=C(F)F)CC7)CC6)nc5c3F)N3C[C@H]5CC[C@H](N5)[C@H]3[C@H](CC)O4)c12 [Example 124]
not fulfilled

Check if AUC(0-inf) >= 500 ng·h/mL (inclusive). Item: C#Cc1c(F)ccc2cc(O)cc(-c3nc4c5c(nc(OCC6(CN7CCC(=C(F)F)CC7)CC6)nc5c3F)N3C[C@H]5CC[C@H](N5)[C@H]3[C@H](C)O4)c12 [Example 19-1]
not fulfilled

Check if AUC(0-inf) >= 500 ng·h/mL (inclusive). Item: C#Cc1c(F)ccc2cc(O)cc(-c3nc4c5c(nc(OCC6(CN7CCC(=C(F)F)CC7)CC6)nc5c3F)N3C[C@H]5CC[C@H](N5)[C@H]3CO4)c12 [Example 1-1]
fulfilled

* * *

Assay: Pharmacokinetic determination in rats (IV and PO, plasma, LCMS/MS)
Format: in vivo, SD rats
Settings: male, SD, rat, in vivo, iv, 1 mg/kg
value.type: C0

Please report C0 for the following molecule: C#Cc1c(F)ccc2cc(O)cc(-c3ncc4c(N5CC6CCC(C5)N6)nc(OC[C@@]56CCCN5C[C@H](F)C6)nc4c3F)c12 [MRTX-1133, reference compound]
2490 ng/mL

* * *

Test: Plasma stability test, dog plasma;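 further: parent compound left in dog plasma quantified by LC-MS with positive electrospray ionization, selected reaction monitoring and an internal standard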
Format: in vitro ADME
Settings: dog, plasma
value.type: half-life (h)
Numbers only; they are read as h.

Please report half-life for the following compound: CC(C)[N+](C)(CCOC(=O)C1c2ccccc2Oc2ccccc21)C(C)C [Propantheline bromide, propantheline bromide, reference compound]
1.34

* * *

For each entry below, report its Remaining rate (%) 0 min value.
Experiment: Plasma stability test, rat plasma
Details: Rat plasma, 37°C, 0 min
Numbers only; they are read as %.

Please report Remaining rate (%) 0 min for the following molecule: `C#Cc1c(F)ccc2cc(O)cc(-c3nc4c5c(nc(OCC6(CN7CCC(=C(F)F)CC7)CC6)nc5c3F)N3C[C@H]5CC[C@H](N5)[C@H]3[C@H](C)O4)c12`
100.00

Please report Remaining rate (%) 0 min for the following molecule: `[2H]C([2H])(Oc1nc2c3c(nc(-c4cc(O)cc5ccc(F)c(C#C)c45)c(F)c3n1)O[C@@H](C)[C@@H]1[C@@H]3CC[C@H](CN21)N3)C1(C([2H])([2H])N2CCC(=CF)CC2)CC1`
100.00

Please report Remaining rate (%) 0 min for the following molecule: CC[C@H](C)C(=O)O[C@H]1C[C@@H](C)C=C2C=C[C@H](C)[C@H](CC[C@@H]3C[C@@H](O)CC(=O)O3)[C@H]21 [Lovastatin, lovastatin, reference compound]
100.00

* * *

For each entry below, report its Tumor volume (mm^3, Mean ± SD) Day 14 value.
Test system: human colorectal cancer cell line (GP2D)
Test: Anti-tumor efficacy in mouse transplanted tumor model of human colorectal cancer cell line (GP2D)
Format: in vivo, mice (BALB/c nude)
Settings: 100mpk, PO*BID, Day 14
Numbers only; they are read as mm^3.

Please report Tumor volume (mm^3, Mean ± SD) Day 14 for the following compound: `[2H]C([2H])([2H])[C@@H]1Oc2nc(-c3cc(O)cc4ccc(F)c(C#C)c34)c(F)c3nc(OCC4(CN5CCC(=C(F)F)CC5)CC4)nc(c23)N2C[C@H]3CC[C@H](N3)[C@@H]12`
77

Please report Tumor volume (mm^3, Mean ± SD) Day 14 for the following compound: C#Cc1c(F)ccc2cc(O)cc(-c3nc4c5c(nc(OCC6(CN7CCC(=CF)CC7C)CC6)nc5c3F)N3CC5CCC(N5)C3C(C)O4)c12 (stereo not shown)
87

Please report Tumor volume (mm^3, Mean ± SD) Day 14 for the following compound: `C#Cc1c(F)ccc2cc(O)cc(-c3nc4c5c(nc(OCC6(CN7CCC(=CF)CC7)CC6)nc5c3F)N3C[C@H]5CC[C@H](N5)[C@H]3[C@H](C)O4)c12`
79

Please report Tumor volume (mm^3, Mean ± SD) Day 14 for the following compound: `C#Cc1c(F)ccc2cc(O)cc(-c3nc4c5c(nc(OCC6(CN7CCC(=CF)C7)CC6)nc5c3F)N3C[C@H]5CC[C@H](N5)[C@H]3[C@H](C)O4)c12`
122
